Test system: CYP3A4
assay.procedure: Human CYP 3A4 induction assay (mRNA, cryopreserved human hepatocytes)
Assay type: in vitro ADME
condition.summary: human hepatocytes, 10 uM test compound, 72 hours, mRNA, percent of control (rifampin positive control)
property.label: CYP3A4 mRNA Induct Hu 10 uM POC (%)
Numbers only, in %.

# annotated cases, reported CYP3A4 mRNA Induct Hu 10 uM POC shown
COc1cc([C@H]2C[C@@H]2C2CC2)c(F)cc1-n1c(=O)ccc2cc(S(=O)(=O)Nc3ccon3)ccc21 (atropisomer, axis not shown; (P)) [Example 31] ... 100.7
COc1cc([C@H]2C[C@@H]2C(F)(F)F)c(Cl)cc1-n1c(=O)ccc2cc(S(=O)(=O)Nc3ccon3)ccc21 (atropisomer, axis not shown; (P)) [Example 19] ... 85.5
COc1cc([C@H]2C[C@@H]2C(F)(F)F)c(Cl)cc1-n1c(=O)ccc2cc(S(=O)(=O)Nc3ncccn3)ccc21 (atropisomer, axis not shown; (P)) [Example 12] ... 29.85

INPUT: Quote CYP3A4 mRNA Induct Hu 10 uM POC reported for COc1cc([C@@H]2C[C@H]2C(F)(F)F)c(C)cc1-n1c(=O)ccc2cc(S(=O)(=O)Nc3ncccn3)ccc21 (atropisomer, axis not shown; (P)) [Example 28] please.
OUTPUT: 23.36
